assay.system: purified kidney DPIV (Sus scrofa, UniProt P22411)
Construct: The hydrolysis of peptide analogues by purified kidney DPIV was studied as described previously [12]; from tissue; host or cells: kidney
Sequence (P22411 whole entry): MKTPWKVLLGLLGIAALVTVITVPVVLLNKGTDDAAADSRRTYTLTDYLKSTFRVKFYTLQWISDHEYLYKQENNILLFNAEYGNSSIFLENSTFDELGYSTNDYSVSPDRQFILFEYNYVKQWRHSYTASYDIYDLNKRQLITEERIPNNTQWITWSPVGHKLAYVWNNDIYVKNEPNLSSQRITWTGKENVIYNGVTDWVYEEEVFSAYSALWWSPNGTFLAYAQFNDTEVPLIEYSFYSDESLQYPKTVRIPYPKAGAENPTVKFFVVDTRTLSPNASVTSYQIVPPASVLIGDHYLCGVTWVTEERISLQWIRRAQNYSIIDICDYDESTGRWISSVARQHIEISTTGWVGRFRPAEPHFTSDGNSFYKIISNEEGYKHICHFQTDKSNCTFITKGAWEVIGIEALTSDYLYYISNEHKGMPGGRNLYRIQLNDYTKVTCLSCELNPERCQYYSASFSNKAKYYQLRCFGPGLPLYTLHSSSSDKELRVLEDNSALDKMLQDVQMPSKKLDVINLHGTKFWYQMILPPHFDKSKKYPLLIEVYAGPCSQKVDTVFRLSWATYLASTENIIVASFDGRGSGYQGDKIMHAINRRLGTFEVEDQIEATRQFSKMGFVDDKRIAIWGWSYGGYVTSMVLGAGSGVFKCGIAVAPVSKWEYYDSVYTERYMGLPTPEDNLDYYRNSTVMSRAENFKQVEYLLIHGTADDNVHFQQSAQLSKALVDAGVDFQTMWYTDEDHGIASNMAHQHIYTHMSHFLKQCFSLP
assay.summary: Determination of DPIV resistance by MALDI-TOF mass spectrometry
Assay type: in vitro ADME
test.conditions: purified kidney DPIV, 0.04 M Tris buffer pH 7.6, up to 24 h, MALDI-TOF MS; read-out: half life after incubation with DP IV
Task for the reader: assign each of the following compounds its reported half-life.
One number for each entry, in min.

CC[C@H](C)[C@H](NC(=O)[C@H](CO)NC(=O)[C@H](Cc1ccc(O)cc1)NC(=O)[C@H](CC(=O)O)NC(=O)[C@H](CO)NC(=O)[C@@H](NC(=O)[C@H](Cc1ccccc1)NC(=O)[C@@H](NC(=O)CNC(=O)[C@H](CCC(=O)O)NC(=O)[C@H](C)NC(=O)[C@@H](N)Cc1ccc(O)cc1)[C@@H](C)O)[C@@H](C)CC)C(=O)N[C@@H](C)C(=O)N[C@@H](CCSC)C(=O)N[C@@H](CC(=O)O)C(=O)O; 35

Please examine the following record next.
Endpoint output: half-life of CC[C@H](C)[C@H](NC(=O)[C@H](CO)NC(=O)[C@H](Cc1ccc(O)cc1)NC(=O)[C@H](CC(=O)O)NC(=O)[C@H](CO)NC(=O)[C@@H](NC(=O)[C@H](Cc1ccccc1)NC(=O)[C@@H](NC(=O)CNC(=O)[C@H](CCC(=O)O)NC(=O)[C@H](C)NC(=O)[C@@H](N)Cc1ccc(O)cc1)[C@@H](C)O)[C@@H](C)CC)C(=O)N[C@@H](C)C(=O)O . Value?
11.5

* * *

assay.system: rat pancreatic islet (wild type) GIP-receptor (Rattus norvegicus, UniProt P43219)
Construct: expressed in transfected cells; host or cells: CHO-K1 (Chinese hamster ovary)
Sequence (P43219 19-455): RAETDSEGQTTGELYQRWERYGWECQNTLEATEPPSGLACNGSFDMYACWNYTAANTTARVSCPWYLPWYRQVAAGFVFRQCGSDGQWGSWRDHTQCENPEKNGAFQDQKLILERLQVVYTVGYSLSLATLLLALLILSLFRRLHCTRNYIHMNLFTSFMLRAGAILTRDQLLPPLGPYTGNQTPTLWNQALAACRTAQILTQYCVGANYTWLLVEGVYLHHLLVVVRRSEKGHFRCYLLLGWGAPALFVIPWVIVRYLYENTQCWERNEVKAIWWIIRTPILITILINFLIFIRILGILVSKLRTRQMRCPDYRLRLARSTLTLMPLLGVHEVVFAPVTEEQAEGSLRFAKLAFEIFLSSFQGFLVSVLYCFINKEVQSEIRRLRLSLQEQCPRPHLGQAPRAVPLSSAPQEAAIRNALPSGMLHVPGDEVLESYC
assay.summary: biochemical
Format: binding
test.conditions: read-out: Receptor Binding % Displacement at 20 μM
Ends that are not written are not given here.
Quick rule for you: inhibition at 20 µM at 90% or higher means yes, lower means no.

Known results for substances:
YAEGTFISDYSIAMAAAAQQDFVNWLLAQK-NH2 [GIP(1-14)(AAAA)(19-30)NH2]; yes
YAEGTFISDYSIAMQQDFVNWLLAQK-NH2 [GIP(1-14)(19-30)NH2]; yes
YAEGTFEKEEKEKEEKEQQDFVNWLLAQK-NH2; no
YAEGTFEKEKQQDFVNWLLAQK-NH2 [GIP(1-6)(EKEK)(19-30)NH2]; no

--- query ---
Please tell me: is the substance YAEGTFISDYSIAMEKEKQQDFVNWLLAQK-NH2 [GIP(1-14)(EKEK)(19-30)NH2] at or over 90% in terms of inhibition at 20 µM?
yes

Data provenance: patent US20050137135A1
